Tgt: Beta-lactamase (Klebsiella pneumoniae, UniProt Q93LQ9)
Sequence (Q93LQ9 whole entry): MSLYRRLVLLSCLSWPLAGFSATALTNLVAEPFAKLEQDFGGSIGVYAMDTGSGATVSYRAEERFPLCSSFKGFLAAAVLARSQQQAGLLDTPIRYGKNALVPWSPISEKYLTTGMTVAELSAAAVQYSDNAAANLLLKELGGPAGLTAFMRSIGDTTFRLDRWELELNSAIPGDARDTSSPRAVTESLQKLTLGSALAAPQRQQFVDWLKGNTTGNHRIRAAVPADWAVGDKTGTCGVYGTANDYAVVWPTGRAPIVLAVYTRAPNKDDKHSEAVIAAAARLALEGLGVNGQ
Test method notes: Spectrophotometric Assay: Enzyme activities were measured in the presence of the test inhibitor in spectrophotometric assay.
pIC50: −log10 of the molar value.

Compound | pIC50
O=C(Nc1ccc2c(c1)CCNC2)[C@@H]1CCC2CN1C(=O)N2OS(=O)(=O)O (stereo partly specified) | 7.72
